- System: OVCAR-3 ovarian
- Protocol: NCI tumour cell line growth inhibition, 48 h; in the data active means GI50 below about 0.43 µM; inactive means the rest
# valid calls are TRUE for active, FALSE for inactive; nothing else

Problem: Record lookup: outcome of this test for Oc1c(Br)cc(Br)c2cccnc12 ?
Result: FALSE

Problem: Record lookup: outcome of this test for COc1cc2c(c(OC)c1OC)-c1c(c3ccc([N+](=O)[O-])cc3c(=O)n1CCCN=[N+]=[N-])C2=O ?
Result: FALSE

Problem: Record lookup: outcome of this test for COC(=O)[C@@H](C)C[C@H](Cc1ccccc1)NC(=O)c1cccc([C@@H](C[C@H](C(C)C)N(C)C(=O)[C@@H](NC(=O)[C@H]2CCCCN2C)C(C)C)OC(C)=O)n1 ?
Result: TRUE

Problem: Record lookup: outcome of this test for Cc1ccc(S(=O)(=O)NC(CCCCN)C(=O)CCl)cc1 (stereo not given) ?
Result: FALSE

Problem: Record lookup: outcome of this test for CCCCCCCCCCCCOC1C(C(COC2OC(C(O)CO)C3OC(C)(C)OC23)OC(=O)Nc2ccc([N+](=O)[O-])cc2)OC2OC(C)(C)OC21 (stereo not given) ?
Result: FALSE

====

Can you tell me TGI for the items I'm about to list?
- System: SR leukemia
- Protocol: NCI tumour cell line growth inhibition, 48 h

Problem: Query for SR leukemia: what TGI does the record show for COC(=O)[C@@H](C)C[C@H](Cc1ccccc1)NC(=O)c1cccc([C@@H](C[C@H](C(C)C)N(C)C(=O)[C@@H](NC(=O)[C@H]2CCCCN2C)C(C)C)OC(C)=O)n1 ?
Result: > 16.7 µM

Problem: Query for SR leukemia: what TGI does the record show for Fc1ccccc1N=c1oc2ccc(Br)cc2cc1-c1nc2ccccc2[nH]1 ?
Result: > 100 µM

Problem: Query for SR leukemia: what TGI does the record show for N#Cc1c(C#N)c(-c2ccco2)n(/N=C/c2ccco2)c1N ?
Result: > 100 µM

====

- Test system: CAKI-1 renal
- Protocol: NCI tumour cell line growth inhibition, 48 h
Recorded Endpoint: TGI (µM)
Respond numerically; units are µM and should not be typed.

Problem: Item under review: COc1cc2c(cc1Nc1nc(Nc3ccsc3C(N)=O)c3cc[nH]c3n1)N(C(=O)CN(C)C)CCC2 . Reported TGI?
Result: 10.2

Problem: Item under review: O=C(CSCC(=O)N/N=C\c1cc(Br)cc(Br)c1O)N/N=C\c1cc(Br)cc(Br)c1O . Reported TGI?
Result: 73

Problem: Item under review: CCOC(=O)C(Cc1ccc(N(CCCl)CCCl)cc1)NC(=O)C(CC(C)C)NC(C)=O (centres undefined) . Reported TGI?
Result: 2.32

Problem: Item under review: CN1CCN(Cc2ccc(NC(=O)c3cncc(C#Cc4c(N)ncc5ccc(F)cc45)c3)cc2C(F)(F)F)CC1 . Reported TGI?
Result: 5.68

====

- Tested on: RXF 393 renal
- Protocol: NCI tumour cell line growth inhibition, 48 h
Recorded Endpoint: TGI

Problem: Item under review: COc1c(C)cnc(Cn2cnc3c(Cl)nc(N)nc32)c1C . Reported TGI?
Result: > 100 µM

Problem: Item under review: O=C(Cc1nc2ccccc2s1)C(=O)Nc1ccccc1C(F)(F)F . Reported TGI?
Result: > 100 µM

Problem: Item under review: COC(=O)c1cc(CNCCc2c[nH]c3ccccc23)on1 . Reported TGI?
Result: > 100 µM
